Assay: folding stability dG unfold from chymotrypsin proteolysis; higher = more stable
Reported folding stability dG unfold values follow for various sequences
Please state the value followed by its unit.

SAGGGFDIITITFGGIPITLTLEGEEEVKKFIEELPKLGIKTEILEKEKKIGPDGKPYVEVKVKAIPSAGGS [r8_336_JUSTAS] = 1.43 kcal/mol
SAGGMVEIELEVDGKKIKITYDKETGKITIEIDGKKIEVELPEEDKGKSKEELLKKALEKAKEELKKSAGGS [r16_215_TrROS_Hall] = 2.46 kcal/mol
SAGGKEVVIVFPLPENFEAEIFIPDRPVVRLENGLLVAVAPENVPALIVIRNPNGEELVLPVELLDLSAGGS [r8_72_TrMRF] = 1.28 kcal/mol

Here is the next item to consider.
Prompt: Answer with the recorded folding stability dG unfold of SAGGSAGGSAGKNWFFRIKIKYPNGEERTIYIPGTLDEIKEELPGPIKNIDIEPMPAEDMSAGGSAGGSAGG [r11_596_TrROS] only.
Response: 1.76 kcal/mol

====

Reported folding stability dG unfold values follow for various sequences
Assay: folding stability dG unfold from trypsin proteolysis; higher = more stable
Unit kcal/mol implied. Number only.

Here's what some known entries look like.
SAGGSAGVSTSKGSSVTTLKIDYKDDVVIKYSYNPSTGTVYTTVIDPETGNPVTVETYSVSPDVPLSAGGSA [r15_425_JUSTAS] = 0.649
SAGGSAATTVAVNGKEITIVSVDPATGKVTIAVPENVPESVIQAAKDLLEAQGLPVEVKRVPPEKLSAGGSA [r15_570_JUSTAS] = 1.42
SAGVKPTPSGKNILEIDPETGKIRFVNNNGELFELPTGNDSLDAAIKEAVEKLGYPPDTPFNIDEIKIGSAG [r5_923_TrMRF] = 1.46
SAGGSAGGSAKIEVEVTPLPGNKVLKIIKFENGEYIIEVFYFDPETGKIYSESEIISEEELLSAGGSAGGSA [r18_325_TrMRF] = 1.3
SAGMPLRTVKVLVTINDKTEEKTLSEEELKALIESGELELLGKEPEENIVYVYKKVPPPVGSKTKKSLLSAG [r5_868_JUSTAS] = 0.71
SAGGSAGGSAGKFKLKIKEVHWRENPNGYEQVKVEIKIPGEEKKIWFPPGMSIDQILDQLSAGGSAGGSAGG [r11_1056_TrROS] = 0.415
SAGSEEEKKAIAEELKEKILKERPELQKKEYTVEVEITPLPDDSIRITVTVTLPSGETETREYVYPNKSAGG [r19_194_JUSTAS] = 2.71
SAGGSAGGSAGGPWITIPLPPGEEYKIENKGNGKEQEINPNDGSIVIPNIPPDNAKVERESAGGSAGGSAGG [r7_200_TrROS] = 0.179
SAGGSMTEEELEKKAKEIAEELEKKYKEENPNVEVKVTFEVIPEKGIIKITATSPKGKKLKEIIIPLLSAGG [r13_247_JUSTAS] = 3.74
SAGGSAGGSAGGAKKAIEEAIKAGYLPYEDPESGKIHFYFPTPDGTIHKLTLFVAPEEESAGGSAGGSAGGS [r10_1173_TrMRF] = 0.591

Prompt: Answer with the recorded folding stability dG unfold of SAGGSAGGMVETKLVESEELPGNRRVLTYRVTEPDSLYRVTVELTLDPSGTVLSSKTTTEPIPLSAGGSAGG [r6_20_JUSTAS] only.
Response: 0.846

Prompt: Answer with the recorded folding stability dG unfold of SAGGSAGGMVKVSSDPATGKVYVTYPGADPEAVAEKVKKEYGAKKIKVEKDPNKDVTTITITVESAGGSAGG [r6_662_JUSTAS] only.
Response: -1.01

Prompt: Answer with the recorded folding stability dG unfold of SAGGSMNPSVSVEEEVFPDGVTRLKLTFSDGKELEAEVTRHADGNVQVTLYDKSPGKKTTYTIPLSSAGGSA [r2_99_JUSTAS] only.
Response: 0.65

Prompt: Answer with the recorded folding stability dG unfold of SPPFKIKEIKIEIFPNGTVKIEYRFPSSGHYVKFSIPVDPKKGRIPINMEIYNPDNGKVWEFSATIRIKKSA [r9_825_TrROS] only.
Response: 3.34

Prompt: Answer with the recorded folding stability dG unfold of SAGGSAGGSAGGGPAPGKGLVVKLEPEEFEFENFRLIVVKAVKDDKLIAEIAYLISPDESAGGSAGGSAGGS [r10_628_TrMRF] only.
Response: 1.05

Prompt: Answer with the recorded folding stability dG unfold of SAGKKKKIKIKVKIIVNGKLKEIEIEVDENKTLEEILAEIKKKLPKNAIIIITNENGEKKIIILPKEELSAG [r5_77_TrROS_Hall] only.
Response: 2.49

Prompt: Answer with the recorded folding stability dG unfold of SAGGSAGGSADWQKLEYPFPPGMPLDNIKEELRDLFPGKKPTIEIDKIEPHNGQYWIKITVKSAGGSAGGSA [r18_360_TrROS] only.
Response: 0.42

Prompt: Answer with the recorded folding stability dG unfold of SAGKKKVLLAVDPENNALVLVEYETVGDVTFVRSLVFHGNTTTETLGLVRVIEPGKTEKLLISVPIPPSAGG [r19_292_TrMRF] only.
Response: 2.07

Prompt: Answer with the recorded folding stability dG unfold of SAGGSAGGSAGKPEIEMEIETRTVRLPDGYLLRFSRMRITLPDGSKFEFLSVEIIRLEDLSAGGSAGGSAGG [r17_312_TrROS_Hall] only.
Response: 3.88

Prompt: Answer with the recorded folding stability dG unfold of SAGGKPKPGQEVEMKMIMLMVTKPGEITIMRMKMEMRVNPDGNVQMDMKMEMVRVPLSKDQAKELLNASAGG [r13_544_TrROS] only.
Response: 2.68

Prompt: Answer with the recorded folding stability dG unfold of SAGGSAGGWIEIDPETGTIEIWMPPNDIEPLVDEIAEELGWKVKVKVEPNPEGWVRHTITIPPKSAGGSAGG [r6_419_TrROS] only.
Response: -0.109

Prompt: Answer with the recorded folding stability dG unfold of SMITSTTTTDPNSNTTTTTYTYPDTTYTVTRTLNPDNTVTVTVTATTPPGPTTPLSTVNLSPTDTLTLPVSA [r9_1172_JUSTAS] only.
Response: 1.34

Prompt: Answer with the recorded folding stability dG unfold of SAGGSAGGSAGGWDEIKDILREAGWPVKNVEVQWIPNPENGKPMNSITVSYPDGKKWTIMSAGGSAGGSAGG [r7_337_TrROS] only.
Response: -0.195
